Molecular target: UniProtKB Q9Y463
Sequence (Q9Y463 whole entry, looked up): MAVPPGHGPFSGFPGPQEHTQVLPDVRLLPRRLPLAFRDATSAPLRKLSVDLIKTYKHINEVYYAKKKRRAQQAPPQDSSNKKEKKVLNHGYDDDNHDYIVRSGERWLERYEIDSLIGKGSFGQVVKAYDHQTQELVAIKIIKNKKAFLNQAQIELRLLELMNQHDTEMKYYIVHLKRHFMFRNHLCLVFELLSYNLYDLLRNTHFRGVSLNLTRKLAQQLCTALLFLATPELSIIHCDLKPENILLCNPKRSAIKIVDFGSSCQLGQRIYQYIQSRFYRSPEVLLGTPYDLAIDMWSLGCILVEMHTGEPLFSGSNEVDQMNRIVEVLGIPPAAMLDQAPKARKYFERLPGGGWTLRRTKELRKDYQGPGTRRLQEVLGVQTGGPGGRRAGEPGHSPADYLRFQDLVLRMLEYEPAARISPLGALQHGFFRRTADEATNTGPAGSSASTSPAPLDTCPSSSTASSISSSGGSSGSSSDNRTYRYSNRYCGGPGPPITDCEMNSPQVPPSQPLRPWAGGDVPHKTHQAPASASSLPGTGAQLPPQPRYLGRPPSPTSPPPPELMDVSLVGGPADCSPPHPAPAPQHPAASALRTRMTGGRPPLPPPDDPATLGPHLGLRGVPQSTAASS
Assay: Inhibition of DYRK1B at 1 uM
Catalogue of compounds with associated inhibition

Example entries and their recorded answers appear below.
- CN1CCN(c2ccc(-c3cnc4c(c3)N(Cc3cc(F)ccc3F)CCN4)cn2)CC1: < 50%
- CC(=O)N1CCN(c2cc(-c3cnc4c(c3)N(Cc3cc(Cl)ccc3C(F)(F)F)CCN4)ccn2)CC1: < 50%
- CN1CCN(c2ccc(-c3cnc4c(c3)N(Cc3c(F)ccc(F)c3Cl)CCN4)cn2)CC1: < 50%
- FC(F)(F)c1ccc(Cl)cc1CN1CCNc2ncc(-c3ccnc(N4CCNCC4)c3)cc21: < 50%
- CN1CCN(c2ccc(-c3cnc4c(c3)N(Cc3cc(Cl)ccc3Cl)CCN4)cn2)CC1: < 50%

Continue with the next compound.
Endpoint output: inhibition of `CN1CCN(c2ccc(-c3cnc4c(c3)N(Cc3cc(Cl)ccc3C(F)(F)F)CCN4)cn2)CC1` . Value?
< 50%

The measured values listed here are drawn from ChEMBL document CHEMBL1165965.
